# target of assay: CCKB receptor (Mus musculus, UniProt P56481)
# Construct: The cortex was dissected, weighed and homogenised in 40ml ice-cold buffer; tissue Charles River (supplier of the CD1 mice); host or cells: cerebral cortex membranes of male CD1 mice
# Sequence (P56481 1-453): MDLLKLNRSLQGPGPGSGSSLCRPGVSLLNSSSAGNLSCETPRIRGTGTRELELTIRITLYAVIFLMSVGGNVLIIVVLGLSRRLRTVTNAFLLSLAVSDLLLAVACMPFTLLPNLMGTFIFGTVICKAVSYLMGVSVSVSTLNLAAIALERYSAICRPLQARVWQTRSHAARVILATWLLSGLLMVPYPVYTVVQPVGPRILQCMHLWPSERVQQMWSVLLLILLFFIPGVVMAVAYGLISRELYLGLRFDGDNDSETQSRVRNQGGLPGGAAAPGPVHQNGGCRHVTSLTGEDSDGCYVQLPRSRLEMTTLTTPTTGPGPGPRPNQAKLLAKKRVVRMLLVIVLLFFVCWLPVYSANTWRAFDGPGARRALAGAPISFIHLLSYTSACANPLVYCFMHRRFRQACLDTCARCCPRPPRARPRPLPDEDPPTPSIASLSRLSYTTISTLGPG
# measurement notes: CCKB receptor radioligand binding assay in mouse cortical membranes ([125I]-CCK8S)
# condition set: [125I]-CCK8S 200 pM, 150 min at 21±3°, read-out: CCKB pKi (converted)
attribute measured: Ki (nM)
// units = nM; emit number, no label

Below: 10 molecules and their reported Ki.
| molecule | unit descriptor | Ki |
| --- | --- | --- |
| O=C(NCC12CC3CC(CC(C3)C1)C2)c1cc2cc[nH]c2cc1C(=O)N[C@@H](Cc1ccccc1)C(=O)Nc1cc(-c2nn[nH]n2)cc(-c2nn[nH]n2)c1 | nM | 5.01 |
| COC(=O)[C@@H]1CCCN1C(=O)c1cc2ccccc2cc1C(=O)NCC12CC3CC(CC(C3)C1)C2 | nM | 1000 |
| O=C(O[C@H]1CO[C@@H](c2ccccc2)OC1)c1cc(NC(=O)[C@H](Cc2ccccc2)NC(=O)c2cc3cc[nH]c3cc2C(=O)NCC23CC4CC(CC(C4)C2)C3)cc(C(=O)O[C@H]2CO[C@@H](c3ccccc3)OC2)c1 | nM | 2000 |
| O=C(NO)c1cc(NC(=O)[C@H](Cc2ccccc2)NC(=O)c2cc3cc[nH]c3cc2C(=O)NCC23CC4CC(CC(C4)C2)C3)cc(C(=O)NO)c1 | nM | 7.94 |
| O=C(O)c1cc(NC(=O)[C@H](Cc2ccccc2)NC(=O)C2Cc3[nH]cnc3CN2C(=O)NCC23CC4CC(CC(C4)C2)C3)cc(C(=O)O)c1 (mixture of isomers) | nM | 501 |
| O=C(O)c1cc(NC(=O)[C@H](Cc2ccccc2)NC(=O)c2cc3[nH]cnc3cc2C(=O)NCC2CCCCCC2)cc(C(=O)O)c1 | nM | 15.8 |
| COC(=O)c1cc(NC(=O)[C@H](Cc2ccccc2)NC(=O)c2cc3cc[nH]c3cc2C(=O)NCC23CC4CC(CC(C4)C2)C3)cc(C(=O)OC)c1 | nM | 63.1 |
| O=C(NS(=O)(=O)c1cccc(NC(=O)[C@H](Cc2ccccc2)NC(=O)c2cc3[nH]cnc3cc2C(=O)NCC23CC4CC(CC(C4)C2)C3)c1)c1ccccc1 | nM | 15.8 |
| Cc1ccc(C(=O)O)cc1NC(=O)[C@H](Cc1ccccc1)NC(=O)c1cc2[nH]cnc2cc1C(=O)NCC12CC3CC(CC(C3)C1)C2 | nM | 100 |
| CN(CC12CC3CC(CC(C3)C1)C2)C(=O)c1cc2ccccc2cc1C(=O)N1CCC[C@@H]1C(=O)O | nM | 251 |

Name the reported Ki value associated with the molecule O=C(NCC12CC3CC(CC(C3)C1)C2)c1cc2nc[nH]c2cc1C(=O)N[C@@H](Cc1ccccc1)C(=O)Nc1cccc(-c2nn[nH]n2)c1 15.8

Now consider O=C(O)c1cc(NC(=O)[C@@H]2CCCN2C(=O)c2cc3[nH]cnc3cc2C(=O)NCC23CC4CC(CC(C4)C2)C3)cc(C(=O)O)c1 and answer again. 251
